Reference source for all entries: PubChem BioAssay (NCI)

Tested on: HT29 colon
test details: NCI-60 one-dose screen, 48 h
condition label: 10 µM unless noted
This is part of a sample that, as a whole, favours compounds with a hit. Of some 83,000 tested, about 20% had one in any assay. The source made the active and inactive calls. How the source made its calls: active means growth percent below 10; inactive means the rest.
Outcome codes: 1 for active, 0 for inactive

compound	label class
COc1ccc(NC(=O)c2sc3nc(C(C)C)ccc3c2N)cc1	0
Cc1ccc(NC(=O)[C@]23CCC(C)(C)CC2C2=CCC4[C@@]5(C)C[C@@H](O)[C@H](O)[C@@](C)(CO)C5CC[C@@]4(C)[C@]2(C)CC3)cc1 (stereo partly drawn)	1
COc1c(F)ccc(C(=O)Nc2ccc3nc(NC(=O)C4CCCN(S(=O)(=O)c5ccc(C(F)(F)F)cc5)C4)sc3c2)c1F (stereo not drawn)	0
COc1ccc2oc(=O)c(C3(C)NC(=O)c4c(/C=C/C(=O)OC(C)(C)C)cccc4N3)cc2c1 (stereo not drawn)	0
CSc1ccc(NC(=O)c2ccc3nn(/C(C#N)=C/c4ccccn4)nc3c2)cc1	1
CC1(C)CC[C@]2(C(=O)Nc3ccc(F)cc3)CC[C@]3(C)C(=CCC4[C@@]5(C)C[C@@H](O)[C@H](O)[C@@](C)(CO)C5CC[C@]43C)C2C1 (stereo partly drawn)	1
Cn1cc(NC(=O)c2cc(NC(=O)c3ccc(C#Cc4ccccc4)cc3)cn2C)cc1C(=O)NCCCN1CCOCC1	1
C=C1CC[C@@H]2[C@]3(C)COC(c4ccco4)O[C@@H]3CC[C@@]2(C)[C@@H]1C/C=C1/C(=O)OCC1OC(C)=O (stereo partly drawn)	1

----------
Test system: NCI-H23 lung
test details: NCI-60 one-dose screen, 48 h (100 = growth as untreated, 0 = no growth, -100 = all killed)
condition label: 10 µM unless noted
The panel holds about 83,000 compounds, 20% with a hit somewhere; the sample as a whole holds those more often.
Reported growth values follow for various compounds
quantity kind: growth (%)

>>> print(df.to_string())
                                   compound  quantity_kind  measurement_unit  endpoint_result
0  COc1ccc2[nH]cc(-c3nc(N)nnc3-c3cn(C)c4ncccc34)c2c1         growth                 %             69.9
1    Cc1cc(C)n(-c2ccc3nnc(-c4ccccc4)n3n2)n1         growth                 %             94.1
2  CCCSc1nc(NCCc2c[nH]c3ccccc23)c(C#N)c(-c2ccc(OC)cc2)n1         growth                 %             73.7
3  CC12CC[C@@H]3[C@]4(C)COC(c5cn[nH]c5-c5cccc(Br)c5)O[C@@H]4CC[C@@]3(C)[C@@H]1CC(C1=CCOC1=O)O2 (some centres undefined)         growth                 %               38
4  NS(=O)(=O)c1ccc(-n2cc(-c3cccc(NC(=O)c4cc(Cl)cc(Cl)c4)c3)nn2)cc1         growth                 %             41.2
5  COCOc1cc2oc(C(=O)N[C@@H](Cc3ccccc3)C(O)C(=O)NCc3ccccc3)c(C)c(=O)c2cc1OCOC (some centres undefined)         growth                 %             59.2
6   O=C1Nc2ccc([N+](=O)[O-])cc2C1=Nc1ccccc1         growth                 %              106
7    Clc1cccc(N/N=C/c2c[nH]c3ccc(Br)cc23)n1         growth                 %             39.8
8          Nc1cccc(SCc2cc3ccccc3[nH]c2=O)c1         growth                 %             73.5

----------
System: RXF 393 renal
test details: NCI-60 one-dose screen, 48 h (100 = growth as untreated, 0 = no growth, -100 = all killed)
condition label: 10 µM unless noted
Compounds without any hit were thinned out: in the full panel of roughly 83,000, 20% have a hit. Active and inactive are the calls of the source. Rule for the calls: active = growth percent below 10; inactive = the rest.
growth values, listed per item
quantity kind: growth

>>> print(df.to_string())
                                   compound   endpoint_result
0  Cc1ccc2c(N)c(C(=O)Nc3ccc(-c4ccccc4)cc3)sc2n1  30.5% (inactive)
1  O=C1NC(=O)/C(=C/c2ccccc2OCc2cc3ccccc3nc2Cl)S1  72.8% (inactive)
2  COc1ccc(C(=O)/C=C/c2cccc(Br)c2)cc1S(N)(=O)=O   -80.3% (active)
3  CC1=C(C(=O)c2ccccc2)C(c2cccc(Cl)c2Cl)n2c(nc3ccccc32)N1 (stereo not given)  42.8% (inactive)
4  O=C(/C=C/Nc1ccc(Cl)cc1)c1ccc2c(c1)Nc1ccccc1S2  14.5% (inactive)
5  COc1c(F)ccc(C(=O)Nc2ccc3nc(NC(=O)C4CCCN(S(=O)(=O)c5ccc(Cl)cc5)C4)sc3c2)c1F (stereo not given)    8.75% (active)
6  CSc1ccc(C(=O)Nc2ccc3nnn(/C(C#N)=C/c4ccccn4)c3c2)cc1   -95.5% (active)
7  S=C(NCCc1ccccc1)Nc1ccc(OCc2nc3ccccc3[nH]2)cc1   122% (inactive)
8  CC(C)c1ccc2c(N)c(C(=O)Nc3ccc(C(F)(F)F)cn3)sc2n1  74.5% (inactive)
9  COc1cc(-c2ccc(/C=N/NC(=O)c3[nH]c4ccc(Br)cc4c3-c3ccccc3)o2)cc(OC)c1OC  88.7% (inactive)

----------
Test system: SR leukemia
test details: NCI-60 one-dose screen, 48 h (100 = growth as untreated, 0 = no growth, -100 = all killed)
condition label: 10 µM unless noted
Compounds without any hit were thinned out: in the full panel of roughly 83,000, 20% have a hit.
quantity kind: growth (%)

>>> print(df.to_string())
                                    molecule  quantity_kind  endpoint_result
 0  Cn1cc(-c2cc(N)n3nc(-c4cn(C)c5ncc(Br)cc45)cc3n2)c2cc(Br)cnc21         growth            -35.1
 1  Nc1nnc(-c2c[nH]c3ccc(Br)cc23)c(-c2c[nH]c3ncc(Br)cc23)n1         growth             23.6
 2  CC(=O)/C=C/c1cccc2c1C(=O)NC(C)(c1cc3cc(Br)ccc3oc1=O)N2 (configuration not stated)         growth           -0.625
 3  COc1ccc(-c2nc3cc(C)ccc3n2CC(=O)N=Nc2c(O)[nH]c3ccccc23)cc1         growth             0.97
 4  COC1=C[C@]23CCC(=O)N2CCc2cc4c(cc2[C@@H]3[C@@H]1OC(=O)[C@H](C)O)OCO4         growth            -11.9
 5  O=C(O)c1cccc(-c2ccc(/C=N/NC(=O)c3[nH]c4ccc(Br)cc4c3-c3ccccc3)o2)c1         growth             21.1
 6  O=C(/C=C/Nc1ccc(Cl)cc1)c1ccc2c(c1)Nc1ccccc1S2         growth             58.1
 7  CN1CCN(/C(=N\c2sc(-c3ccccc3)nc2-c2ccccc2)c2ccccc2)CC1         growth             21.1
 8  COc1ccc2[nH]cc(-c3nnc(N)nc3-c3cn(C)c4ncc(Br)cc34)c2c1         growth             49.6
 9  O=C(Cn1c(/C=C/c2ccccc2)nc2ccccc2c1=O)Nc1ccc(Cl)cc1         growth             87.6
10  C#CCOc1cc(N(CC)CC)ccc1C(C(=O)NC(C)(C)C)N(C(=O)C1CCc2cc(F)ccc2O1)c1ccccc1F (configuration not stated)         growth             16.3
11  COc1ccc(N2N=C(c3ccc4c(c3)OCO4)CC2c2cccc(NC(=O)CCNS(=O)(=O)c3ccc(Cl)cc3)c2)cc1 (configuration not stated)         growth             3.71
12  COC(=O)/C=C/c1cccc2c1C(=O)NC(C)(c1cc3ccccc3oc1=O)N2 (configuration not stated)         growth             58.7
13  C#CCOc1ccc(/C=N/Nc2nc(-c3cc4cc(OC)ccc4oc3=O)cs2)cc1OC         growth             34.7
14  Cn1cc(-c2nnc(N)nc2-c2c[nH]c3ccccc23)c2cccnc21         growth             25.2
15  Cc1c(C(=O)NNC(=O)Nc2ccc(Cl)cc2)nnn1-c1ccc(Br)cc1         growth             89.9
16  O=C(c1ccccc1)C(c1c[nH]c2ccccc12)c1c[nH]c2ccccc12         growth             7.54
17  C=C1CCC2C3(C)COC(c4cccs4)OC3CCC2(C)C1CC(Sc1ccccc1)C1=CCOC1=O (configuration not stated)         growth             46.1
18  O=C(COc1ccc(NC(=O)Nc2ccc(Cl)c(Cl)c2)cc1)N=Nc1c(O)[nH]c2ccc(Cl)cc12         growth             3.93
19  COc1ccc2c(c1)c(-c1cc3nc(-c4cn(C)c5ncccc45)cc(N)n3n1)cn2C         growth            -19.3
20  N#Cc1c(-c2ccc(Cl)cc2)nc2n[nH]c(-c3ccc(Cl)cc3)c2c1-c1ccc(C(F)(F)F)cc1         growth            -21.8
21  C=C1CC[C@@H]2[C@]3(C)COC(c4cn[nH]c4-c4ccc(F)cc4)O[C@@H]3CC[C@@]2(C)[C@@H]1C/C=C1/C(=O)OCC1O (some centres not stated)         growth             9.73
22  CN1CCc2c(sc3ncnc(N/N=C/c4ccc(Cl)cc4Cl)c23)C1         growth            -16.5
23  N=C1N=C(SCc2nc3ccccc3[nH]2)NC(=O)/C1=C/c1ccc(Cl)cc1         growth             98.7
24  Cc1sc2c(c1C)C(c1ccc(Cl)cc1)=N[C@@H](CC(=O)NCCCCCNC(=O)COc1ccc(C3CCC(=O)NC3=O)cc1)c1nnc(C)n1-2 (some centres not stated)         growth             37.5
25  O=C(/C=C/c1cccc(OCc2ccccc2)c1)c1nc2ccccc2[nH]1         growth            -33.3
26  Cn1cc(-c2nc(N)nnc2-c2c[nH]c3ccc(F)cc23)c2cc(Br)cnc21         growth             3.88
27  CCN(CC)c1ccnc(CNCCSC(c2ccccc2)(c2ccccc2)c2ccc(OC)cc2)c1         growth            -49.4
28   COc1ccc(NC(=O)c2sc3nc(C(C)C)ccc3c2N)cc1         growth               60
29  Cc1sc(C(NC(=O)OCCn2c([N+](=O)[O-])cnc2C)C(F)(F)Cl)nc1-c1ccc(OC(F)(F)F)cc1 (configuration not stated)         growth             5.16
30  N#Cc1ccc(/C=N/NC(=O)c2[nH]c3ccc(Br)cc3c2-c2ccccc2)o1         growth             4.35
31  CN(C)c1nc(NCCNS(=O)(=O)c2ccc(C(=O)/C=C/c3ccc(Cl)cc3)cc2)nc(Nc2ccc(F)cc2)n1         growth            -41.1
32  C#CCOc1ccc(/C=N/Nc2nc(-c3ccc(F)cc3)cs2)cc1OC         growth             25.5
33  Cc1nc(Nc2ccccn2)sc1C(=O)CC(SCC(=O)Nc1ccc(Cl)cc1)c1ccccc1F (configuration not stated)         growth             12.6
34  COc1ccc(CCC2c3c(cc4c(c3OC)OCO4)CCN2C)cc1 (configuration not stated)         growth            -18.2
35  CCC(C)(C)c1ccc(OCCCCN2CCN(c3ccncc3)CC2)cc1         growth            -24.2
36  COc1cc2c(c(OC)c1OC)C(=O)CC(c1cccc(NC(=O)c3cc(NC(=O)[C@H](C)N)ccc3Cl)c1)O2 (some centres not stated)         growth             9.41
